assay: inhibitors of Chlamydomonas gravitaxis, primary screen, whole organism, Chlamydomonas reinhardtii, WT vs cilia-less mutant, absorbance, 96-well (AID 463189); details: OD600 absorbance, 2 days, at 10 µM
The source made the active and inactive calls.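 How the source made its calls: active means inhibition at or above 50% relative to wild type and mutant plate controls; inactive means inhibition below 50%.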
Labels: active, inactive

# molecule, qualitative-label
measured = [
    ("C(=N\\n1cnnc1)/c1cccc(Oc2ccccc2)c1", "active"),
    ("CC1(C)NC(=O)N(CC(O)COc2cc3ccccc3cc2C(=O)N2CCCCC2)C1=O (stereo unspecified)", "inactive"),
    ("C=CCn1c(-c2ccc(OC)c(OC)c2)n[nH]c1=S", "inactive"),
    ("CCOC(=O)CSc1nnc2n(Cc3ccccc3)c(=O)c3c4c(sc3n12)CCC4", "inactive"),
    ("CSc1nc(N)nc(SCC(=O)C23CC4CC(CC(C4)C2)C3)c1C#N", "inactive"),
    ("Cn1c(=O)[nH]c(=O)c2c1nc(Br)n2CCSc1ncccn1", "inactive"),
    ("Cc1ccc(Cn2ncc3c(N4CCN(Cc5ccc(Cl)cc5)CC4)ncnc32)cc1", "active"),
    ("COc1cccc(C(=O)N2CCN(Cc3ccccn3)CC2)c1OC", "inactive"),
    ("COc1ccc(CC(=O)OCN2C(=O)c3ccccc3C2=O)cc1", "inactive"),
    ("CCC(=O)NC1(C(F)(F)F)C(=O)Nc2c1c(=O)[nH]c(=O)n2Cc1ccco1 (stereo unspecified)", "inactive"),
    ("CN(C)CCCOC(=O)c1ccc(Cl)cc1Cl", "active"),
]

Data credit: PubChem BioAssay
